# Tested on: RAW-Dual (murine macrophage reporter line)
# protocol-notes: IRF reporter (Lucia luciferase) activity fold change vs agonist alone; higher = enhanced IRF activity
# particulars: modulator concentration 10 µM; agonist: 3'3'-cGAMP 10 ug/mL
Label rule, in plain words: IRF reporter of 0.9 and up is TRUE, under 0.9 is FALSE.

Reference set (4 entries):
compound	category
CS(=O)(=O)O.Cc1ccc(NC(=O)c2ccc(CN3CCN(C)CC3)cc2)cc1Nc1nccc(-c2cccnc2)n1	FALSE
O=C1CCCc2[nH]ccc21	TRUE
O=C1OC(c2ccc3ccccc3c2)=NC1=Cc1ccc(Br)c([N+](=O)[O-])c1	FALSE
COC(=O)c1cc(OC)c(=O)c2c(OC)c(OC)ccc2c1	FALSE

QUERY: # bool: IRF reporter of O=C(NCCc1cn2ccccc2n1)c1ccccc1Br >= 0.9
RESULT: TRUE

QUERY: // next record COc1ccc(CCNC(=O)NCc2nn(C3CCCC3)c3c2CCCC3)cc1
RESULT: FALSE

QUERY: Consider next the compound Cc1ccccc1OCC(O)CO (stereo not given) in the same way.
RESULT: TRUE

QUERY: Okay, and COc1ccc(NC(=O)CN2C(=O)c3cccc4cccc(c34)C2=O)cc1 ?
RESULT: TRUE

QUERY: Same question, COC(CNS(=O)(=O)Cc1ccccc1)c1ccc(Cl)s1 (stereo not given) this time
RESULT: TRUE

QUERY: Next record, please: CC(=NNC(=O)CNc1ccccc1C)c1ccc(Br)cc1
RESULT: TRUE

QUERY: Entry to check: Cc1ccc(-n2ncc3c(Nc4cccc(C)c4)ncnc32)cc1
RESULT: TRUE

QUERY: Further, for CCNc1nc(S)nc(NC(C)C)n1 ?
RESULT: FALSE

QUERY: Cl.Cl.O=C(O)COCCN1CCN([C@H](c2ccccc2)c2ccc(Cl)cc2)CC1 ?
RESULT: TRUE

QUERY: Can you check COC(=O)C1=CN(C2CC2)C=C(C(=O)OC)C1c1ccccc1Cl next?
RESULT: TRUE

QUERY: Please give the result for COc1nn(C)cc1C(=O)Nc1ccc(C(=O)NCCN2CCOCC2)cc1 too.
RESULT: TRUE

QUERY: Same question for O=C(CCC1CCCCC1)Nc1ccc(Br)cc1 please.
RESULT: FALSE

QUERY: Now consider CCOC(=O)C1=CC2(CC)CCCN3CCc4c(n1c1ccccc41)C32 (stereo not given) .
RESULT: TRUE

QUERY: Continue with Cc1ccccc1N=Nc1ccc(NC(=O)c2ccnn2C)c(C)c1
RESULT: TRUE

QUERY: Item: CCCCCCCC(=O)N[C@H](CN1CCCC1)[C@H](O)c1ccc2c(c1)OCCO2
RESULT: FALSE

QUERY: Another: Cc1cc2ncc3c(n2n1)CCN(S(=O)(=O)N(C)C)C3
RESULT: TRUE

QUERY: // query: CCc1nc2ccc(C(=O)NC3CCC(n4cccn4)CC3)cc2s1 (stereo not given)
RESULT: TRUE

QUERY: Follow-up item: O=C(O)CSCC(=O)NC1CCSC1=O (stereo not given)
RESULT: TRUE

QUERY: Follow-up entry: CC(=O)Nc1nc(C2CC2)cc(-c2ccco2)c1C#N
RESULT: TRUE

----------
# Test system: RAW-Dual (murine macrophage reporter line)
# protocol-notes: NF-kB reporter (SEAP) activity fold change vs agonist alone; higher = enhanced NF-kB activity
# particulars: modulator concentration 10 µM; agonist: CpG ODN 1826 0.5 ug/mL
Listed compounds paired with reported NF-kB reporter
Answer with the value's number alone.

compound	NF-kB reporter
CCOC(=O)CC(C(=O)OCC)P(=O)(c1ccccc1)c1ccccc1 (centres undefined)	0.85

QUERY: Dear colleague, I am looking for the recorded NF-kB reporter of the following compound: CN(C)c1ccc(C=C(C#N)c2nc(-c3cc4ccccc4oc3=O)cs2)cc1
RESULT: 0.972

QUERY: Follow-up entry: COCCOC(=O)C1=C(C)NC(C)=C(C(=O)OC/C=C/c2ccccc2)C1c1cccc([N+](=O)[O-])c1 (centres undefined)
RESULT: 0.743

QUERY: Same lookup for CS(=O)(=O)O.Cc1c(O)cccc1C(=O)N[C@@H](CSc1ccccc1)[C@H](O)CN1C[C@H]2CCCC[C@H]2C[C@H]1C(=O)NC(C)(C)C , please.
RESULT: 0.399

----------
# System: RAW-Dual (murine macrophage reporter line)
# protocol-notes: IRF reporter (Lucia luciferase) activity fold change vs agonist alone; higher = enhanced IRF activity
# particulars: modulator concentration 10 µM; agonist: MPLA […]
IRF reporter values for the molecules below.
Output: the number by itself.

structure-smiles-string	IRF reporter
CCN1CCN(S(=O)(=O)c2ccc(Oc3ccccc3)cc2)CC1	1.03
Cc1cccc(Sc2nccn3c(=O)n(CC(=O)N4CCN(c5ccccc5)CC4)nc23)c1	0.733
O=C(CCC1CCCC1)Nc1cccc(F)c1	1.12
CCOC(=O)c1cnn(CCOc2ccccc2)c1N	1.31
NC(=O)c1nc(F)cnc1O	1.39

QUERY: Observed IRF reporter on RAW-Dual (murine macrophage reporter line) for CC(=NOCON=C(C)c1ccc(F)cc1F)c1ccc(F)cc1F , please.
RESULT: 1.53

----------
// values below are reported NF-kB reporter
# Tested on: RAW-Dual (murine macrophage reporter line)
# protocol-notes: NF-kB reporter (SEAP) activity fold change vs agonist alone; higher = enhanced NF-kB activity
# particulars: modulator concentration 10 µM; agonist: MPLA […]
Respond using a number only.

Below, each entry is followed by its recorded NF-kB reporter result.
compound	measured-parameter	endpoint-result
CCCCc1oc2ccc(NS(C)(=O)=O)cc2c1C(=O)c1ccc(OCCCN(CCCC)CCCC)cc1.Cl	NF-kB reporter	1.3
Cc1cc(Cl)ccc1OCC(O)CN1CC(C)OC(C)C1.Cl (centres undefined)	NF-kB reporter	0.934
CCC(C)NS(=O)(=O)c1ccc([N+](=O)[O-])cc1 (centres undefined)	NF-kB reporter	0.977
COC(=O)C1=C(C)N(C)C(C)=C(C(=O)OC)C1c1ccc(-c2ccccc2)cc1	NF-kB reporter	0.939
COc1ccccc1S(=O)(=O)N1CC(Oc2nc3c(C(F)(F)F)cccc3s2)C1	NF-kB reporter	1.38
CC(Sc1ccc(Cl)cc1)C(=O)NCc1cccnc1 (centres undefined)	NF-kB reporter	1.08
O=C(CCCN1CCC(O)(c2ccc(Cl)cc2)CC1)c1ccc(F)cc1	NF-kB reporter	1.12
COc1ccc(CNC(=O)NCC#CCOc2cccc(C(F)(F)F)c2)cc1OC	NF-kB reporter	0.95

QUERY: Please give the measured NF-kB reporter for this compound: Cc1[nH]c(/C=C2\C(=O)Nc3ccccc32)c(C)c1CCC(=O)O
RESULT: 0.812

QUERY: Same thing, different compound: CC(=O)N1CCC(C(=O)NCc2cccnc2-c2cnn(C)c2)CC1
RESULT: 0.903

QUERY: What do you have for CCn1cc(C(=O)O)c(=O)c2cc(F)c(N3CCN(C)CC3)cc21.CS(=O)(=O)O ?
RESULT: 0.938

----------
# IRF reporter listing for each entry below
# Test system: RAW-Dual (murine macrophage reporter line)
# protocol-notes: IRF reporter (Lucia luciferase) activity fold change vs agonist alone; higher = enhanced IRF activity
# particulars: modulator concentration 10 µM; agonist: 3'3'-cGAMP 10 ug/mL

Answered cases to consult:
molecule	tested-on	IRF reporter
COC1(c2ccc(Cl)cc2)OC(=O)c2ccccc21 (configuration not stated)	RAW-Dual (murine macrophage reporter line)	0.9
COc1ccccc1-c1nnc(NC(=O)c2cc(C)nn2C)o1	RAW-Dual (murine macrophage reporter line)	0.945
CC(C)(C)C(=O)NCc1cccnc1-c1cccnc1	RAW-Dual (murine macrophage reporter line)	0.972
COC(=O)C1=CN(CC2CCCO2)C=C(C(=O)OC)C1c1ccccc1OC (configuration not stated)	RAW-Dual (murine macrophage reporter line)	0.996
Cc1ccccc1CC(CC(=O)O)C(=O)O (configuration not stated)	RAW-Dual (murine macrophage reporter line)	1.03
CCc1ccc(CCOc2ccc(CC3SC(=O)NC3=O)cc2)nc1.Cl (configuration not stated)	RAW-Dual (murine macrophage reporter line)	0.736

From here, focus on the item given below.
QUERY: // query IRF reporter value for entry O=C(CC(c1ccccc1)c1ccccc1)Nc1ccc(CC(=O)N2CCC(O)CC2)cc1
RESULT: 1.05

----------
# Test system: RAW-Dual (murine macrophage reporter line)
# protocol-notes: IRF reporter (Lucia luciferase) activity fold change vs agonist alone; higher = enhanced IRF activity
# particulars: modulator concentration 10 µM; agonist: MPLA […]
# IRF reporter listing for each entry below
Simply state the number, no unit and no words.

compound	IRF reporter
COc1ccc(C)cc1NC(=O)CN(c1cccc(Br)c1)S(=O)(=O)c1ccccc1	0.809
Cc1cc(OC2CCN(S(=O)(=O)CCc3ccccc3)C2)cc(=O)n1C (stereo not drawn)	0.738
CN(C)C(CNC(=O)NCc1ccc(F)cc1)c1ccc2c(c1)CCO2 (stereo not drawn)	0.804
O=C(CC(c1ccccc1)c1ccccc1)Nc1ccc(CC(=O)N2CCC(O)CC2)cc1	1.25
Cc1cc(I)cc2c1NC(c1cccc([N+](=O)[O-])c1)C1CC=CC21 (stereo not drawn)	1.13
OCc1ccccc1OC1OC(CO)C(O)C(O)C1O (stereo not drawn)	1.13
COC(=O)c1ccc(CSc2ccc3nnc(-c4cccc(F)c4)n3n2)o1	0.968
Br.Cc1ccc(Sc2ccccc2N2CCNCC2)c(C)c1	1.03

QUERY: Form: Entry = CNCc1cc(-c2ccccc2F)n(S(=O)(=O)c2cccnc2)c1.O=C(O)/C=C/C(=O)O | System = RAW-Dual (murine macrophage reporter line) | IRF reporter = ____
RESULT: 0.855

QUERY: Then Cc1cc(CNC(=O)CCc2ccc(S(C)(=O)=O)cc2)c(C)o1 ?
RESULT: 1

QUERY: Ok, now O=C(Nc1cccc(C(F)(F)F)c1)Nc1cnn(CC2COc3ccccc3O2)c1 (stereo not drawn)
RESULT: 1.78

QUERY: Another compound: O=C(CCc1ccc(O)cc1)c1c(O)cc(O)cc1OC1OC(CO)C(O)C(O)C1O (stereo not drawn)
RESULT: 1.02

QUERY: Entry to check: Cl.N=C1CCCN1Cc1[nH]c(=O)[nH]c(=O)c1Cl
RESULT: 0.995

QUERY: O=S(=O)(c1cccc2ccccc12)n1cnc2ccccc21 , same question.
RESULT: 1.33

QUERY: Now consider O=C(NC12CC3CC(CC(C3)C1)C2)N1CCOCC1 and answer again.
RESULT: 1.32

QUERY: Try this compound too: COc1ccc(C(=O)Nc2sc3c(c2C(N)=O)CCCC3)cc1OC
RESULT: 1.08

QUERY: Do the same for COc1ccc(S(=O)(=O)NCc2ccnc(-c3ccncc3)c2)cc1Cl please
RESULT: 1.11

QUERY: What do we get for CN(C)CCOC(=O)COc1ccc(Cl)cc1.Cl ?
RESULT: 0.964

QUERY: Could you do the same for COc1ccc(C=Nc2ccc(OC(C)=O)cc2)cc1 , please?
RESULT: 1.23

QUERY: Next record, please: COc1ccc(S(=O)(=O)N(CC(=O)Nc2ccccc2F)c2ccc(C)cc2)cc1OC
RESULT: 1.16

QUERY: Also COc1ccc(C(=O)Nc2nc(C)c(C)s2)cc1OC ?
RESULT: 1.16

QUERY: Then what about the compound COC(CNC(=O)c1cccc(Br)c1)c1ccccc1C (stereo not drawn) ?
RESULT: 0.901

QUERY: Lookup c1cnn(-c2ccc(N=Nc3ccc(-n4cccn4)cc3)cc2)c1
RESULT: 1.02
